Let's look at some compounds and their measured growth inhibition.
- EXPERIMENT_DESCRIPTION: inhibition of 3D7 malaria parasite growth – strain 3D7 (AID 2306);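 also: 0% = DMSO wells and 100% = chloroquine plus artemisinin control wells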
- CONDITION_DETAILS: P. falciparum 3D7 erythrocytic growth, LDH absorbance, 72 h; at 2 µM; stronger effect = higher value
The reply should be a number in %, with the unit left off.

Worked set:
Cc1[nH]c(C)c(-c2ccc(Oc3ccc(Cl)cc3)cc2)c(=O)c1Cl; 91
CC(C)CNCc1cccc(-c2ccccc2CNC2CCN(Cc3ccccc3)CC2)c1; 100
COc1ccc(OC)c(Cc2c(C)nc3nc(N)nc(N)c3c2C)c1; 90
O=C(Nc1cccc(Cl)c1)c1cnc(N2CCN(c3ccncc3)CC2)c(Cl)c1; 101

For the compound shown here, `COc1cc2nc(NCC3CCN(c4nc(N)c5cc(OC)c(OC)cc5n4)CC3)nc(N)c2cc1OC` , give the reported growth inhibition. 92

Given the compound O=C(NCC1CC1)C1CCN(C(c2ccccc2)c2nc3ccccc3s2)CC1 (stereo not given) , what is its reported growth inhibition? 92

// lookup growth inhibition for `Cc1nc(N)nc(N)c1-c1ccc(Cl)cc1` 96

###

- EXPERIMENT_DESCRIPTION: differential killing of epithelial or mesenchymal cells, primary screen, imaging, PC-3E GFP, TEM4-18 mCherry, co-culture (AID 1345086);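 also: cells exposed to compound for 72 h before imaging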
- CONDITION_DETAILS: imaging cell counts, measured here: mesenchymal TEM4-18 mCherry cell survival, at 1 µM
normalised cell number: recorded values
Provide a numeric answer; units are not to be included.

Bench note: what normalised cell number did `CC[C@H]1OC(=O)[C@H](C)[C@@H](O[C@H]2C[C@@](C)(OC)[C@@H](O)[C@H](C)O2)[C@H](C)[C@@H](O[C@@H]2O[C@H](C)C[C@H](N(C)C)[C@H]2O)[C@](C)(O)C[C@@H](C)[C@@H]2N[C@@H](COCCOC)O[C@H]([C@H]2C)[C@]1(C)O` show? 0.93

I am curious: what normalised cell number value has been reported for C=C1CC[C@H](O)C/C1=C/C=C1\CCC[C@]2(C)C([C@H](C)/C=C/[C@H](C)C(C)C)CC[C@@H]12 (stereo not given in full) ? 1.42

Consider the molecule shown here: CN[C@@H]1[C@H](OC2[C@H](O[C@H]3[C@H](O)[C@@H](O)[C@H](N=C(N)N)[C@@H](O)[C@@H]3N=C(N)N)O[C@@H](C)[C@]2(O)C=O)O[C@@H](CO)[C@H](O)[C@H]1O (stereo not given in full) What is its recorded normalised cell number? 1.22

Consider the molecule O=C1C[C@@H](O)[C@]23Oc4ccc(O)c5c4[C@](Oc4cccc1c42)(O3)C1O[C@@H]1[C@H]5O (stereo not given in full) and give its measured normalised cell number. 1.07

Entry `CC1(C)C2CCC1(CS(=O)(=O)O)C(=O)/C2=C\c1ccc(/C=C2\C(=O)C3(CS(=O)(=O)O)CCC2C3(C)C)cc1` has what normalised cell number? 1.12

Which normalised cell number reading was recorded for the molecule CC(C)CCCC(C)C1CCC2C3CC[C@H]4C[C@@H](O)CC[C@]4(C)C3CC[C@]12C (stereo not given in full) ? 1.1

Sample `OC[C@H]1O[C@@H](O[C@H]2[C@H](O)[C@@H](O)[C@@H](O)O[C@@H]2CO)[C@H](O)[C@@H](O)[C@@H]1O` — what was its normalised cell number? 1.04

Could you share which normalised cell number value was measured for `CN(C)CC/C=C1/c2ccccc2COc2ccccc21` ? 1.4

Look up normalised cell number for this molecule: CC12CCC3C(=CCc4cc(O)ccc43)C1CCC2=O (stereo not given) 1.45

I am curious: what normalised cell number value has been reported for CCC1=CC2CN(C1)Cc1c([nH]c3ccccc13)[C@@](C(=O)OC)(c1cc3c(cc1OC)N(C)[C@H]1[C@@](O)(C(=O)OC)[C@H](OC(C)=O)[C@]4(CC)C=CCN5CC[C@]31[C@@H]54)C2 (stereo not given in full) ? 0.2

Can you share its normalised cell number? I mean this molecule: N=C(N)c1ccc(N=NNc2ccc(C(=N)N)cc2)cc1 (tested in a mixture with another compound) 0.91

So what does the record say about normalised cell number for `CO/N=C(/C(=O)N[C@@H]1C(=O)N2C(C(=O)O)=C(CSc3nc(=O)c(O)nn3C)CS[C@H]12)c1csc(N)n1` ? 1.24

Request the reported normalised cell number associated with O=C(O)C1CC(C2CCCCN2)CN2CCCCC12 (stereo not given) 1

Look up normalised cell number: Cc1oc(=O)oc1CN1CCN(c2cc3c(cc2F)c(=O)c(C(=O)O)c2n3C(C)C2)CC1 (stereo not given) 0.91

Query: normalised cell number; subject: `CCCCC/C=C/C1=C(CO)[C@H](O)[C@H]2O[C@H]2[C@@H]1O` 1.08
